The reader will find reported IC50 values listed item by item below.
# Test system: human skeletal muscle myoblasts (HSMMs)
# Test Protocol: Cell viability assay (cell counting kit-8) of senescent and non-senescent HSMMs treated with inhibitors
# Format: cell-based
# Test Context: Homo sapiens, Myoblast, 72 h; HSMM, 3 days in culture
# number then unit; no other words

molecule="CC1(C)CCC(c2ccc(Cl)cc2)=C(CN2CCN(c3ccc(C(=O)NS(=O)(=O)c4ccc(N[C@H](CCN5CCOCC5)CSc5ccccc5)c(S(=O)(=O)C(F)(F)F)c4)cc3)CC2)C1 [ABT263]" measured_quantity=IC50 result="15.2 µM"

Now look at this one.
## Input Read the entry C[C@H](CCCC(C)(C)O)[C@H]1CC[C@H]2[C@@H]3CC=C4C[C@@H](O)CC[C@]4(C)[C@H]3CC[C@]12C [25HC, 25-hydroxycholesterol] and write its reported IC50.
## Output 7.2 µM
